Data provenance: paper PMC7529893

Target: MAGE-A11:PCF11 interaction (GST-MAGE-A11 and FAM-PCF11_4) (Homo sapiens, UniProt P43364)
Construct: GST-MAGE-A11 MHD (human MAGE-A11 MHD amino acid 218-429); made in house; host or cells: E. coli BL21(DE3)
Sequence (P43364 218-429): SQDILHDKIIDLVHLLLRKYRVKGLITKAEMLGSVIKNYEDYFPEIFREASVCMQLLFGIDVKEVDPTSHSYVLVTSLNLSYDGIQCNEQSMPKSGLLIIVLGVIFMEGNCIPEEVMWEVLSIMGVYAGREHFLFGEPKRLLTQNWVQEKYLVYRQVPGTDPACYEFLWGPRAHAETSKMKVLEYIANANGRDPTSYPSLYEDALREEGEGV
Assay: TR-FRET primary / single point screen at 15 µM
Format: binding
Details: single point TR-FRET screening of quinoline compounds against MAGE-A11:PCF11; 15 µM
Tag: Condition met if measured percent inhibition (TR-FRET) is not below 0.8, Condition not met if it is.

q: Please tell me: is the compound Clc1ccc2c(NCCCNCC3CCOC3)ccnc2c1 (centres unmarked) at or over 0.8 in terms of percent inhibition (TR-FRET)?
a: Condition not met

q: Please tell me: is the compound CCCCCCNCCCNc1ccnc2cc(Cl)ccc12 at or over 0.8 in terms of percent inhibition (TR-FRET)?
a: Condition met

q: Please tell me: is the compound CCCCCCNCCCNc1ccnc2cc(C(F)(F)F)ccc12 at or over 0.8 in terms of percent inhibition (TR-FRET)?
a: Condition met

q: Please tell me: is the compound CCCN(CCCNc1ccnc2cc(Cl)ccc12)Cc1ccc(Cl)cc1Cl at or over 0.8 in terms of percent inhibition (TR-FRET)?
a: Condition met
